measurement.description: total protein half-life in vivo (active degradation + dilution); higher = more stable protein
reported.conditions: E. coli NCM3722 delta-hslV; growth: N-lim chemostat; doubling time 6 h
Below, each entry is listed with its recorded total protein half-life in vivo.
API: value field is a number in h; no unit string.

Example entries begin here.
sequence.entry	unit.annotation	total protein half-life in vivo
MNIENLKTKAEADISEYITKKIIELKKKTGKEVTSIQFTAREKMTGLESYDVKINLI	h	5.74
MARTKLKFRLHRAVIVLFCLALLVALMQGASWFSQNHQRQRNPQLEELARTLARQVTLNVAPLMRTDSPDEKRIQAILDQLTDESRILDAGVYDEQGDLIARSGESVEVRDRLALDGKKAGGYFNQQIVEPIAGKNGPLGYLRLTLDTHTLATEAQQVDNTTNILRLMLLLSLAIGVVLTRTLLQGKRTRWQQSPFLLTASKPVPEEEESEKKE [P0AGC7]	h	4.9

Here is the next item to consider.
Qu. Consider the sequence "MTMYATLEEAIDAAREEFLADNPGIDAEDANVQQFNAQKYVLQDGDIMWQVEFFADEGEEGECLPMLSGEAAQSVFDGDYDEIEIRQEWQEENTLHEWDEGEFQLEPPLDTEEGRAAADEWDER" . State its measured total protein half-life in vivo.
Ans. 3.33

====

measurement.description: total protein half-life in vivo (active degradation + dilution); higher = more stable protein
reported.conditions: E. coli NCM3722 delta-clpP delta-lon delta-hslV; growth: N-lim chemostat; doubling time 6 h
observation.type: total protein half-life in vivo (h)
Answer with a number only, understood to be in h.

sequence.entry	total protein half-life in vivo, h
MIASKFGIGQQVRHSLLGYLGVVVDIDPVYSLSEPSPDELAVNDELRAAPWYHVVMEDDNGLPVHTYLAEAQLSSELQDEHPEQPSMDELAQTIRKQLQAPRLRN [P0AB20]	3.23
MVLMIVSGRSGSGKSVALRALEDMGFYCVDNLPVVLLPDLARTLADREISAAVSIDVRNMPESPEIFEQAMSNLPDAFSPQLLFLDADRNTLIRRYSDTRRLHPLSSKNLSLESAIDKESDLLEPLRSRADLIVDTSEMSVHELAEMLRTRLLGKRERELTMVFESFGFKHGIPIDADYVFDVRFLPNPHWDPKLRPMTGLDKPVAAFLDRHTEVHNFIYQTRSYLELWLPMLETNNRSYLTVAIGCTGGKHRSVYIAEQLADYFRSRGKNVQSRHRTLEKRKP [P0A894]	5.6
MSVRLVLAKGREKSLLRRHPWVFSGAVARMEGKASLGETIDIVDHQGKWLARGAYSPASQIRARVWTFDPSESIDIAFFSRRLQQAQKWRDWLAQKDGLDSYRLIAGESDGLPGITIDRFGNFLVLQLLSAGAEYQRAALISALQTLYPECSIYDRSDVAVRKKEGMELTQGPVTGELPPALLPIEEHGMKLLVDIQHGHKTGYYLDQRDSRLATRRYVENKRVLNCFSYTGGFAVSALMGGCSQVVSVDTSQEALDIARQNVELNKLDLSKAEFVRDDVFKLLRTYRDRGEKFDVIVMDPPKFVENKSQLMGACRGYKDINMLAIQLLNEGGILLTFSCSGLMTSDLFQKIIADAAIDAGRDVQFIEQFRQAADHPVIATYPEGLYLKGFACRVM	5.39

Qu. Return value of total protein half-life in vivo for input "MNKTITALAIMMASFAANASVLPETPVPFKSGTGAIDNDTVYIGLGSAGTAWYKLDTQAKDKKWTALAAFPGGPRDQATSAFIDGNLYVFGGIGKNSEGLTQVFNDVHKYNPKTNSWVKLMSHAPMGMAGHVTFVHNGKAYVTGGVNQNIFNGYFEDLNEAGKDSTAIDKINAHYFDKKAEDYFFNKFLLSFDPSTQQWSYAGESPWYGTAGAAVVNKGDKTWLINGEAKPGLRTDAVFELDFTGNNLKWNKLAPVSSPDGVAGGFAGISNDSLIFAGGAGFKGSRENYQNGKNYAHEGLKKSYSTDIHLWHNGKWDKSGELSQGRAYGVSLPWNNSLLIIGGETAGGKAVTDSVLITVKDNKVTVQN" , no commentary.
Ans. 5.85

Qu. Could you please provide reported total protein half-life in vivo for "MMGKLIWLMGPSGSGKDSLLAELRLREQTQLLVAHRYITRDASAGSENHIALSEQEFFTRAGQNLLALSWHANGLYYGVGVEIDLWLHAGFDVLVNGSRAHLPQARARYQSALLPVCLQVSPEILRQRLENRGRENASEINARLARAARYTPQDCHTLNNDGSLRQSVDTLLTLIHQKEKHHACL" ? Thanks!
Ans. 5.33

Qu. Find the measured total protein half-life in vivo of "MRYPVDVYTGKIQAYPEGKPSAIAKIQVDGELMLTELGLEGDEQAEKKVHGGPDRALCHYPREHYLYWAREFPEQAELFVAPAFGENLSTDGLTESNVYMGDIFRWGEALIQVSQPRSPCYKLNYHFDISDIAQLMQNTGKVGWLYSVIAPGKVSADAPLELVSRVSDVTVQEAAAIAWHMPFDDDQYHRLLSAAGLSKSWTRTMQKRRLSGKIEDFSRRLWGK" and report it.
Ans. 4.69

====

measurement.description: total protein half-life in vivo (active degradation + dilution); higher = more stable protein
reported.conditions: E. coli NCM3722 delta-clpP delta-lon delta-hslV; growth: N-lim chemostat; doubling time 6 h
total protein half-life in vivo values for the sequences below.
Write the value in h as a bare number.

sequence.entry	result
MTTYDRNRNAITTGSRVMVSGTGHTGKILSIDTEGLTAEQIRRGKTVVVEGCEEKLAPLDLIRLGMN	4.22
MSIKLIAVDMDGTFLSDQKTYNRERFMAQYQQMKAQGIRFVVASGNQYYQLISFFPEIANEIAFVAENGGWVVSEGKDVFNGELSKDAFATVVEHLLTRPEVEIIACGKNSAYTLKKYDDAMKTVAEMYYHRLEYVDNFDNLEDIFFKFGLNLSDELIPQVQKALHEAIGDIMVSVHTGNGSIDLIIPGVHKANGLRQLQKLWGIDDSEVVVFGDGGNDIEMLRQAGFSFAMENAGSAVVAAAKYRAGSNNREGVLDVIDKVLKHEAPFDQ	4.81

Qu. Provide one value: measured total protein half-life in vivo of MVKSQPILRYILRGIPAIAVAVLLSACSANNTAKNMHPETRAVGSETSSLQASQDEFENLVRNVDVKSRIMDQYADWKGVRYRLGGSTKKGIDCSGFVQRTFREQFGLELPRSTYEQQEMGKSVSRSNLRTGDLVLFRAGSTGRHVGIYIGNNQFVHASTSSGVIISSMNEPYWKKRYNEARRVLSRS [P0AFV4]
Ans. 2.68

====

Quick reference for total protein half-life in vivo among some sequences
measurement.description: total protein half-life in vivo (active degradation + dilution); higher = more stable protein
reported.conditions: wild type E. coli NCM3722; growth: C-lim chemostat; doubling time 12 h

Some sequences with known total protein half-life in vivo results, for comparison:
sequence.entry	total protein half-life in vivo
MSKNYHIAVLPGDGIGPEVMTQALKVLDAVRNRFAMRITTSHYDVGGAAIDNHGQPLPPATVEGCEQADAVLFGSVGGPKWEHLPPDQQPERGALLPLRKHFKLFSNLRPAKLYQGLEAFCPLRADIAANGFDILCVRELTGGIYFGQPKGREGSGQYEKAFDTEVYHRFEIERIARIAFESARKRRHKVTSIDKANVLQSSILWREIVNEIATEYPDVELAHMYIDNATMQLIKDPSQFDVLLCSNLFGDILSDECAMITGSMGMLPSASLNEQGFGLYEPAGGSAPDIAGKNIANPIAQILSLALLLRYSLDADDAACAIERAINRALEEGIRTGDLARGAAAVSTDEMGDIIARYVAEGV	8.72 h
MSKTFARSSLCALSMTIMTAHAAEPPTNLDKPEGRLDIIAWPGYIERGQTDKQYDWVTQFEKETGCAVNVKTAATSDEMVSLMTKGGYDLVTASGDASLRLIMGKRVQPINTALIPNWKTLDPRVVKGDWFNVGGKVYGTPYQWGPNLLMYNTKTFPTPPDSWQVVFVEQNLPDGKSNKGRVQAYDGPIYIADAALFVKATQPQLGISDPYQLTEEQYQAVLKVLRAQHSLIHRYWHDTTVQMSDFKNEGVVASSAWPYQANALKAEGQPVATVFPKEGVTGWADTTMLHSEAKHPVCAYKWMNWSLTPKVQGDVAAWFGSLPVVPEGCKASPLLGEKGCETNGFNYFDKIAFWKTPIAEGGKFVPYSRWTQDYIAIMGGR	13.3 h
MNEQSQAKSPEALRAMVAGTLANFQHPTLKHNLTTLKALHHVAWMDDTLHVELVMPFVWHSAFEELKEQCSAELLRITGAKAIDWKLSHNIATLKRVKNQPGINGVKNIIAVSSGKGGVGKSSTAVNLALALAAEGAKVGILDADIYGPSIPTMLGAENQRPTSPDGTHMAPIMSHGLATNSIGYLVTDDNAMVWRGPMASKALMQMLQETLWPDLDYLVLDMPPGTGDIQLTLAQNIPVTGAVVVTTPQDIALIDAKKGIVMFEKVEVPVLGIVENMSVHICSNCGHHEPIFGTGGAEKLAEKYHTQLLGQMPLHISLREDLDKGTPTVISRPESEFTAIYRQLADRVAAQLYWQGEVIPGEISFRAV [P0AF08]	9.46 h
MIDDDGYRPNVGIVICNRQGQVMWARRFGQHSWQFPQGGINPGESAEQAMYRELFEEVGLSRKDVRILASTRNWLRYKLPKRLVRWDTKPVCIGQKQKWFLLQLVSGDAEINMQTSSTPEFDGWRWVSYWYPVRQVVSFKRDVYRRVMKEFASVVMSLQENTPKPQNASAYRRKRG [P0A776]	9.01 h

Could you now look at the following sequence, please?
Qu. Given "MPVRASIEPLTWENAFFGVNSAIVRITSEAPLLTPDALAPWSRVQAKIAASNTGELDALQQLGFSLVEGEVDLALPVNNASDSGAVVAQETDIPALRQLASAAFAQSRFRAPWYAPDASSRFYAQWIENAVRGTFDHQCLILRAASGDIRGYVSLRELNATDARIGLLAGRGAGAELMQTALNWAYARGKTTLRVATQMGNTAALKRYIQSGANVESTAYWLYR" , respond with its total protein half-life in vivo.
Ans. 11.5 h
